Assay: Half life in CD-1 mouse at 2 mg/kg, iv administered as single bolus dose by LC-MS/MS analysis
Assay type: ADME, organism-based
Set-up: dose 2 mg/kg, route intravenous
Settings: in vivo
Listing of entries alongside the reported half-life.
Numbers only; they are read as h.

Recorded results for 3 molecules are shown here.
CC(C)NC(=O)[C@H]1CC[C@@H](n2/c(=N/C(=O)c3cc(F)cc(Cl)c3)[nH]c3ccc(CN4CCC(C(C)(C)O)CC4)cc32)CC1 : 2.08
CC(C)NC(=O)[C@H]1CC[C@@H](n2/c(=N/C(=O)c3cccc(C(F)(F)F)c3)[nH]c3ccc(CN4CCC(C(C)(C)O)CC4)cc32)CC1 : 2.2
CC(C)NC(=O)[C@H]1CC[C@@H](n2/c(=N/C(=O)c3ccc(F)cc3)[nH]c3ccc(CN4CCC(C(C)(C)O)CC4)cc32)CC1 : 1.05

# ---- query molecule ----
Summary for this molecule, CC(C)NC(=O)[C@H]1CC[C@@H](n2/c(=N/C(=O)c3cc(F)cc(F)c3)[nH]c3ccc(CN4CCC(C(C)(C)O)CC4)cc32)CC1 : half-life is 1.01

---

Listing of entries alongside the reported MRT.
Test: Mean residence time in CD-1 mouse at 2 mg/kg, iv administered as single bolus dose by LC-MS/MS analysis
Type: ADME, organism-based
Parameters: dose 2 mg/kg, route intravenous
Conditions: in vivo
Numbers only; they are read as h.

Recorded results for 2 molecules are shown here.
CC(C)NC(=O)[C@H]1CC[C@@H](n2/c(=N/C(=O)c3cccc(C(F)(F)F)c3)[nH]c3ccc(CN4CCC(C(C)(C)O)CC4)cc32)CC1 : 2.92
CC(C)NC(=O)[C@H]1CC[C@@H](n2/c(=N/C(=O)c3cc(F)cc(Cl)c3)[nH]c3ccc(CN4CCC(C(C)(C)O)CC4)cc32)CC1 : 2.56

Summary for this molecule, CC(C)NC(=O)[C@H]1CC[C@@H](n2/c(=N/C(=O)c3ccc(F)cc3)[nH]c3ccc(CN4CCC(C(C)(C)O)CC4)cc32)CC1 : MRT is 0.474

Summary for this molecule, CC(C)NC(=O)[C@H]1CC[C@@H](n2/c(=N/C(=O)c3cc(F)cc(F)c3)[nH]c3ccc(CN4CCC(C(C)(C)O)CC4)cc32)CC1 : MRT is 1.28

---

Assay: Drug metabolism in CD-1 mouse NADPH-fortified liver microsomes assessed as hydrolysis metabolite formation rate by LC-MS/MS analysis
Type: ADME
RESULT_TYPE: Vmax(app) (pmol/min/mg)
Numbers only; they are read as pmol/min/mg.

Recorded results for 3 molecules are shown here.
CC(C)NC(=O)[C@H]1CC[C@@H](n2/c(=N/C(=O)c3cc(F)cc(F)c3)[nH]c3ccc(CN4CCC(C(C)(C)O)CC4)cc32)CC1 : 143
CC(C)NC(=O)[C@H]1CC[C@@H](n2/c(=N/C(=O)c3cccc(C(F)(F)F)c3)[nH]c3ccc(CN4CCC(C(C)(C)O)CC4)cc32)CC1 : 194
CC(C)NC(=O)[C@H]1CC[C@@H](n2/c(=N/C(=O)c3ccc(F)cc3)[nH]c3ccc(CN4CCC(C(C)(C)O)CC4)cc32)CC1 : 45.4

# ---- query molecule ----
Summary for this molecule, CC(C)NC(=O)[C@H]1CC[C@@H](n2/c(=N/C(=O)c3cc(F)cc(Cl)c3)[nH]c3ccc(CN4CCC(C(C)(C)O)CC4)cc32)CC1 : Vmax(app) is 279
